The reported measurements were obtained from ChEMBL document CHEMBL1138067.

measuredOn: Adenosine receptor A2b (Homo sapiens)
Sequence (P29275 whole entry): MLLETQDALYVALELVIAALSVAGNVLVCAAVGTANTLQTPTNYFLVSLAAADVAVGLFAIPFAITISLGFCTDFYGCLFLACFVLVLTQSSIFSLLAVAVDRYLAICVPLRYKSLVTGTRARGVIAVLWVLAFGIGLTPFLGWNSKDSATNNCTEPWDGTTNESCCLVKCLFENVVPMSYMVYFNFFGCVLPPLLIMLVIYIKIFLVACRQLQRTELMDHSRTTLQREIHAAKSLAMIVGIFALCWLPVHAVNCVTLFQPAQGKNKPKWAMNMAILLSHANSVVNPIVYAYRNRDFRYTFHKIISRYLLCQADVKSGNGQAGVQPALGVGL
testDescription: Displacement of [3H]PSB298 from human recombinant adenosine A2B receptor expressed in CHO cells
quantityMeasured: Ki (nM)

>>> observed("CCCn1c(=O)[nH]c2[nH]c(-c3ccc(S(=O)(=O)NCCc4ccccc4)cc3)nc2c1=O")
3.62
>>> observed("CCCn1c(=O)[nH]c2[nH]c(-c3ccc(S(=O)(=O)NCc4ccccc4)cc3)nc2c1=O")
4.2

(a) CCCn1c(=O)[nH]c2nc(-c3ccc(S(=O)(=O)N4CCN(Cc5ccccc5)CC4)cc3)[nH]c2c1=O
(b) Cn1c(=O)c2nc(-c3ccc(S(=O)(=O)NCC(=O)O)cc3)[nH]c2n(C)c1=O
# input Smaller Ki value, a vs b ? Answer = label.
# output a
(a: 3.6 nM, b: 154 nM)
